Reported log10 of EC50 by item:
target_or_test_system: T1, full-length beta-Catenin (Uniprot ID P35222) (Homo sapiens (Human), UniProt P35222 2-781)
T1 construct: Also used here for the endogenous beta-catenin of the DLD1 TCF reporter cells; also called bCat; B-Catenin
T1 sequence: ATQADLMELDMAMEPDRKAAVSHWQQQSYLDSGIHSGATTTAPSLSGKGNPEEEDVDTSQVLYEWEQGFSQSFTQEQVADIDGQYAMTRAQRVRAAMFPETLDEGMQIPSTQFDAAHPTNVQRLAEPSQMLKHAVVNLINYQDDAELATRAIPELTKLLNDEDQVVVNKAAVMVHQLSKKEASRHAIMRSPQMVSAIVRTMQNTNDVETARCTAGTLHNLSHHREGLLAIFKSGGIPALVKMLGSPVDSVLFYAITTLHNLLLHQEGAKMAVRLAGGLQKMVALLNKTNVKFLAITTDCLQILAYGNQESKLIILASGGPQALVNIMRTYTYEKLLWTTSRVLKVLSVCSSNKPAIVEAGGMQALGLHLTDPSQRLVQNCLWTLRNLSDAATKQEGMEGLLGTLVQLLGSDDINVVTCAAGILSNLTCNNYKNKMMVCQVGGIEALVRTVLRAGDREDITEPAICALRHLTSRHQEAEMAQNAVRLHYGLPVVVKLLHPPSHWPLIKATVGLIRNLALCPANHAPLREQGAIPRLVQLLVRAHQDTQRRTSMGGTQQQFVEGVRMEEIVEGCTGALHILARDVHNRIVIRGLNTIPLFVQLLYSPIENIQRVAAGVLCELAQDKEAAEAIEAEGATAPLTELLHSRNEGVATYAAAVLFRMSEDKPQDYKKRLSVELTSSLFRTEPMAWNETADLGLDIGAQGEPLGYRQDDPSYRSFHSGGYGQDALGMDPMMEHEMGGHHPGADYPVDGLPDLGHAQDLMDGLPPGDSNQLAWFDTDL
method_notes: fluorescence polarization competition; full-length beta-catenin, competitor 5FAM-TCF4(10-53) probe
Starred links: 1 amine or outer side, 2 acyl side, 3 side chain; linkers in the order of their positions; H or OH if unused. Positions of bridges follow the written chain, without caps; N, C: chain ends. Non-standard residues stand in square brackets, D forms with d. Primed or numbered codes have the meaning given here. B5(4) = 2,2-bis(4-pentenyl)glycine = 2-amino-2-(pent-4-en-1-yl)hept-6-enoic acid (stitching residue), C=CCCCC(CCCC=C)(N[*:1])C(=O)[*:2]; B5″ = 2,2-bis(4-pentenyl)glycine, stitching residue, C=CCCCC(CCCC=C)(N[*:1])C(=O)[*:2]; B5(28) = 2,2-bis(4-pentenyl)glycine, C=CCCCC(CCCC=C)(N[*:1])C(=O)[*:2]; Bta = N[C@@H](Cc1csc2ccccc12)C(=O)O; αAllylPro = C=CC[C@@]1(C(=O)O)CCCN1; S8 = C=CCCCCCC[C@](C)(N)C(=O)O; NMeS = CN[C@@H](CO)C(=O)O
// do not treat as linear: log10 of EC50, unit nM

Example binders with recorded log10 of EC50:
>  <binder>
Ac-[αAllylPro]DL[B5″]DEAAFN[S8]F[Bta][NMeS]-NH2 (staple 1-4, 4-11, Stapled peptide composition) [I-760]

>  <log10 of EC50>
2.78

$$$$
>  <binder>
Ac-[αAllylPro]DL[B5(28)]DEAAFN[S8]F[Bta]S-NH2 (staple 1-4, 4-11, Stapled peptide composition) [I-751]

>  <log10 of EC50>
1.46

$$$$
>  <binder>
XDLXDEAAFNXFXT (not fully specified; as printed: Ac-PL3-Asp-Leu-B5-Asp-Glu-Ala-Ala-Phe-Asn-S8-Phe-BztA-Thr-NH2; N-terminal Ac, C-terminal NH2; stapled by olefin metathesis PL3(1)-B5(4) and B5(4)-S8(11), Stapled peptide composition) [I-749]

>  <log10 of EC50>
1.60

$$$$
>  <binder>
Ac-[αAllylPro]DL[B5(4)]DEAAFN[S8]F[Bta]N-NH2 (staple 1-4, 4-11; also: olefin E/Z not assigned, earlier-eluting staple isomer, Stapled peptide composition) [I-752]

>  <log10 of EC50>
1.20

$$$$
>  <binder>
Ac-[αAllylPro]DL[B5(4)]DEAAFN[S8]F[Bta]N-NH2 (staple 1-4, 4-11; also: olefin E/Z not assigned, later-eluting staple isomer, Stapled peptide composition) [I-753]

>  <log10 of EC50>
1.15

$$$$

We next turn to a different binder, shown below.
IN: Name the recorded log10 of EC50 for Ac-[αAllylPro]DL[B5(4)]DEAAFN[S8]F[Bta]S-NH2 (staple 1-4, 4-11; also: olefin E/Z not assigned, earlier-eluting staple isomer, Stapled peptide composition) [I-750] .
OUT: 1.63
